test: chemical genetic growth profiling, strain panel (AID 1159580);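 further: tested at 20 µM; growth read once vehicle control cultures reached saturation at 30 °C; 1 = growth at the plate median or of vehicle wells; lower values mean less growth of the strain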; conditions: S. cerevisiae deletion strains, growth OD, locus YBR171W, strain sec66, hits give low values
About 2,000 (36%) of roughly 5,500 compounds were called active. Roughly 18% stayed inconclusive and do not appear here. The list shows a part of the results.
Below: a set of entries, each annotated with reported normalized growth.
Assay metric: normalized growth

[
  {
    "Molecule": "CC(=O)Oc1cccc(O)c1",
    "Endpoint result": 1.03
  },
  {
    "Molecule": "CC(=O)O[C@@H]1CC2C(C)(C)[C@H](O)C=C[C@]2(C)C2CC[C@]3(C)C(=CC(=O)O[C@H]3c3ccoc3)[C@@]21C (stereo not given in full)",
    "Endpoint result": 0.988
  },
  {
    "Molecule": "CC(C)C[C@@H](CN)CC(=O)O",
    "Endpoint result": 1.02
  },
  {
    "Molecule": "C[C@H](CCC(=O)O)[C@H]1CCC2C3C(=O)CC4CC(=O)CC[C@]4(C)C3CC(=O)[C@@]21C (stereo not given in full)",
    "Endpoint result": 0.956
  },
  {
    "Molecule": "CC(=O)Oc1ccc(/C=C/c2cc(OC(C)=O)cc(OC(C)=O)c2)cc1",
    "Endpoint result": 0.978
  }
]

Origin of measurements: PubChem BioAssay AID1159580
